Tested on: Mannheimia haemolytica
experiment notes: minimum inhibitory concentration (MIC)
test conditions: isolate (source animal id): 142
measurement type: minimum inhibitory concentration

>>> reported_value("CO/N=C(\\C(=O)N[C@@H]1C(=O)N2C(C(=O)O)=C(CSC(=O)c3ccco3)CS[C@H]12)c1csc(N)n1")
"≤ 0.25 µg/mL"
>>> reported_value("C=C[C@]1(C)C[C@@H](OC(=O)CSCCN(CC)CC)[C@]2(C)[C@H](C)CC[C@]3(CCC(=O)[C@H]32)[C@@H](C)[C@@H]1O")
"32 µg/mL"
>>> reported_value("CC[C@H]1OC(=O)C[C@@H](O)[C@H](C)[C@@H](O[C@@H]2O[C@H](C)[C@@H](O)[C@H](N(C)C)[C@H]2O)[C@@H](CCN2C[C@H](C)C[C@H](C)C2)C[C@@H](C)C(=O)/C=C/C(C)=C/[C@@H]1CO[C@@H]1O[C@H](C)[C@@H](O)[C@@H](OC)[C@H]1OC")
"> 16 µg/mL"
>>> reported_value("CC1(C)S[C@@H]2[C@H](NC(=O)[C@H](N)c3ccccc3)C(=O)N2[C@H]1C(=O)O")
"≤ 0.25 µg/mL"
>>> reported_value("COc1cc(NS(=O)(=O)c2ccc(N)cc2)nc(OC)n1")
"> 256 µg/mL"
>>> reported_value("CCN1CCN(c2cc3c(cc2F)c(=O)c(C(=O)O)cn3C2CC2)CC1")
"1 µg/mL"

====

minimum inhibitory concentration reference
System: Escherichia coli
experiment notes: minimum inhibitory concentration (MIC)
test conditions: isolate (source animal id): 179
measurement type: minimum inhibitory concentration

>>> reported_value("CC[C@H]1OC(=O)C[C@@H](O)[C@H](C)[C@@H](O[C@@H]2O[C@H](C)[C@@H](O)[C@H](N(C)C)[C@H]2O)[C@@H](CCN2C[C@H](C)C[C@H](C)C2)C[C@@H](C)C(=O)/C=C/C(C)=C/[C@@H]1CO[C@@H]1O[C@H](C)[C@@H](O)[C@@H](OC)[C@H]1OC")
"> 16 µg/mL"
>>> reported_value("CCC[C@@H]1C[C@@H](C(=O)N[C@@H]([C@H]2O[C@H](SC)[C@H](O)[C@@H](O)[C@H]2O)[C@H](C)Cl)N(C)C1")
"> 16 µg/mL"
>>> reported_value("COc1cc(NS(=O)(=O)c2ccc(N)cc2)nc(OC)n1")
"≤ 256 µg/mL"

====

System: Escherichia coli
experiment notes: minimum inhibitory concentration (MIC)
test conditions: isolate (source animal id): 119
minimum inhibitory concentration reference
measurement type: minimum inhibitory concentration

>>> reported_value("C=C[C@]1(C)C[C@@H](OC(=O)CSCCN(CC)CC)[C@]2(C)[C@H](C)CC[C@]3(CCC(=O)[C@H]32)[C@@H](C)[C@@H]1O")
"> 32 µg/mL"
>>> reported_value("CCN1CCN(c2cc3c(cc2F)c(=O)c(C(=O)O)cn3C2CC2)CC1")
"> 2 µg/mL"
>>> reported_value("CC[C@H]1OC(=O)C[C@@H](O)[C@H](C)[C@@H](O[C@@H]2O[C@H](C)[C@@H](O)[C@H](N(C)C)[C@H]2O)[C@@H](CCN2CCCCC2)C[C@@H](C)C(=O)/C=C/C(C)=C/[C@@H]1CN1CCCCC1")
"8 µg/mL"
>>> reported_value("COc1cc(Cc2cnc(N)nc2N)cc(OC)c1OC.Cc1cc(NS(=O)(=O)c2ccc(N)cc2)no1")
"> 2 µg/mL"
>>> reported_value("CS(=O)(=O)c1ccc([C@@H](O)[C@@H](CF)NC(=O)C(Cl)Cl)cc1")
"> 8 µg/mL"
>>> reported_value("CCC[C@@H]1C[C@@H](C(=O)N[C@@H]([C@H]2O[C@H](SC)[C@H](O)[C@@H](O)[C@H]2O)[C@H](C)Cl)N(C)C1")
"> 16 µg/mL"

====

Test system: Histophilus somni
experiment notes: minimum inhibitory concentration (MIC)
test conditions: isolate (source animal id): 45
minimum inhibitory concentration reference
measurement type: minimum inhibitory concentration

>>> reported_value("COc1cc(NS(=O)(=O)c2ccc(N)cc2)nc(OC)n1 [sulfadimethoxine]")
"> 256 µg/mL"
>>> reported_value("CCCNC[C@]1(O)[C@H](C)O[C@@H](O[C@H]2[C@H](C)[C@@H](O[C@@H]3O[C@H](C)C[C@H](N(C)C)[C@H]3O)[C@](C)(O)C[C@@H](C)CN[C@H](C)[C@@H](O)[C@](C)(O)[C@@H](CC)OC(=O)[C@@H]2C)C[C@@]1(C)OC [Tulathromycin]")
"≤ 8 µg/mL"
>>> reported_value("CC1(C)S[C@@H]2[C@H](NC(=O)[C@H](N)c3ccccc3)C(=O)N2[C@H]1C(=O)O [Ampicillin]")
"≤ 0.25 µg/mL"
>>> reported_value("NC[C@@H]1O[C@H](O[C@H]2[C@@H](O)[C@H](O[C@@H]3[C@@H](O)[C@H](N)C[C@H](N)[C@H]3O[C@H]3O[C@H](CN)[C@@H](O)[C@H](O)[C@H]3N)O[C@@H]2CO)[C@H](N)[C@@H](O)[C@@H]1O [Neomycin]")
"32 µg/mL"
>>> reported_value("CS(=O)(=O)c1ccc([C@@H](O)[C@@H](CF)NC(=O)C(Cl)Cl)cc1 [Florfenicol]")
"1 µg/mL"
>>> reported_value("CCN1CCN(c2cc3c(cc2F)c(=O)c(C(=O)O)cn3C2CC2)CC1 [Enrofloxacin]")
"≤ 0.12 µg/mL"

====

System: Histophilus somni
experiment notes: minimum inhibitory concentration (MIC)
test conditions: isolate (source animal id): 239
minimum inhibitory concentration reference
measurement type: minimum inhibitory concentration

>>> reported_value("COc1cc(NS(=O)(=O)c2ccc(N)cc2)nc(OC)n1 [sulfadimethoxine]")
"≤ 256 µg/mL"
>>> reported_value("CCCNC[C@]1(O)[C@H](C)O[C@@H](O[C@H]2[C@H](C)[C@@H](O[C@@H]3O[C@H](C)C[C@H](N(C)C)[C@H]3O)[C@](C)(O)C[C@@H](C)CN[C@H](C)[C@@H](O)[C@](C)(O)[C@@H](CC)OC(=O)[C@@H]2C)C[C@@]1(C)OC [Tulathromycin]")
"≤ 8 µg/mL"
>>> reported_value("CCN1CCN(c2cc3c(cc2F)c(=O)c(C(=O)O)cn3C2CC2)CC1 [Enrofloxacin]")
"≤ 0.12 µg/mL"
>>> reported_value("CC1(C)S[C@@H]2[C@H](NC(=O)[C@H](N)c3ccccc3)C(=O)N2[C@H]1C(=O)O [Ampicillin]")
"≤ 0.25 µg/mL"

====

Test system: Escherichia coli
experiment notes: minimum inhibitory concentration (MIC)
test conditions: isolate (source animal id): 108
measurement type: minimum inhibitory concentration

>>> reported_value("CN(C)[C@@H]1C(O)=C(C(N)=O)C(=O)[C@@]2(O)C(O)=C3C(=O)c4c(O)cccc4[C@@](C)(O)[C@H]3C[C@@H]12 [Tetracycline]")
"> 8 µg/mL"
>>> reported_value("C=C[C@]1(C)C[C@@H](OC(=O)CSCCN(CC)CC)[C@]2(C)[C@H](C)CC[C@]3(CCC(=O)[C@H]32)[C@@H](C)[C@@H]1O [Tiamulin]")
"> 32 µg/mL"
>>> reported_value("CC[C@H]1OC(=O)C[C@@H](O)[C@H](C)[C@@H](O[C@@H]2O[C@H](C)[C@@H](O)[C@H](N(C)C)[C@H]2O)[C@@H](CCN2C[C@H](C)C[C@H](C)C2)C[C@@H](C)C(=O)/C=C/C(C)=C/[C@@H]1CO[C@@H]1O[C@H](C)[C@@H](O)[C@@H](OC)[C@H]1OC [Tilmicosin]")
"> 16 µg/mL"
>>> reported_value("CN[C@@H]1[C@H](O)[C@H](NC)[C@H]2O[C@@]3(O)C(=O)C[C@@H](C)O[C@H]3O[C@@H]2[C@H]1O [Spectinomycin]")
"16 µg/mL"
>>> reported_value("CCCNC[C@]1(O)[C@H](C)O[C@@H](O[C@H]2[C@H](C)[C@@H](O[C@@H]3O[C@H](C)C[C@H](N(C)C)[C@H]3O)[C@](C)(O)C[C@@H](C)CN[C@H](C)[C@@H](O)[C@](C)(O)[C@@H](CC)OC(=O)[C@@H]2C)C[C@@]1(C)OC [Tulathromycin]")
"16 µg/mL"

====

Test system: Pasteurella multocida
experiment notes: minimum inhibitory concentration (MIC)
test conditions: isolate (source animal id): 285
measurement type: minimum inhibitory concentration (µg/mL)

>>> reported_value("CC1(C)S[C@@H]2[C@H](NC(=O)Cc3ccccc3)C(=O)N2[C@H]1C(=O)O")
0.25
>>> reported_value("CCCNC[C@]1(O)[C@H](C)O[C@@H](O[C@H]2[C@H](C)[C@@H](O[C@@H]3O[C@H](C)C[C@H](N(C)C)[C@H]3O)[C@](C)(O)C[C@@H](C)CN[C@H](C)[C@@H](O)[C@](C)(O)[C@@H](CC)OC(=O)[C@@H]2C)C[C@@]1(C)OC")
16
>>> reported_value("C=C[C@]1(C)C[C@@H](OC(=O)CSCCN(CC)CC)[C@]2(C)[C@H](C)CC[C@]3(CCC(=O)[C@H]32)[C@@H](C)[C@@H]1O")
32
